Target: purine nucleoside phosphorylase (PNP) (Homo sapiens)
Construct: Human Erythrocytes; from tissue; host or cells: human erythrocytes
Sequence (P00491 1-289): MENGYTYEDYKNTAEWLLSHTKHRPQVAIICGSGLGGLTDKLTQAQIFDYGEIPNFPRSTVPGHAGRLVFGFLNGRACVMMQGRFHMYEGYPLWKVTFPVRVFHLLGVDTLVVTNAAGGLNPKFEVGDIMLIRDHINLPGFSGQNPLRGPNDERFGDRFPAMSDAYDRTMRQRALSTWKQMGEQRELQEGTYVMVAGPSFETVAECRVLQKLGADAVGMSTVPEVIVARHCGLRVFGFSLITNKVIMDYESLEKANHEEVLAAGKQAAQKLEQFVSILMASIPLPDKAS
Experiment: PNP inhibition, coupled xanthine oxidase method of Kalckar (human erythrocyte PNP)
Assay type: biochemical
Details: apparent dissociation constant; 1 mM inorganic phosphate, 0.1 M HEPES buffer (pH 7.4), inosine 0.05 mM to 0.15 mM as substrate; read-out: Ki (M) PNP SOURCE Human Erythrocytes
measurement-label: Ki (M)
Supply the numeric figure in M, leaving out any unit text.

Entry `CCOP(=O)(O)C(F)(F)CCCCCCn1cnc2c(=O)[nH]c(N)nc21` has what Ki? 8e-07

Cited source: patent EP0338887B1
